Record form. Attribute: MIC P. aeruginosa ATCC-47. Fill in for each entry.
Tested on: Pseudomonas aeruginosa
Test: MIC, compound in combination with a second agent (broth microdilution)
Format: cell-based
Conditions: 1:1 (wt:wt) combination with Rifampicin; MIC is total drug concentration
Counter-ions that a name gives are not always drawn. Bridge positions count the residues as written; N and C are the ends. Square brackets hold non-standard residues; d marks the D form. Peptide text beside a SMILES is read from it. * marks the point of attachment. ξ: configuration not given here. Cyclohexylacetyl = O=C(CC1CCCCC1)*; Thr(3ξ) = CC(O)[C@H](N)C(=O)O; Dab = NCC[C@H](N)C(=O)O; Inp = O=C(O)C1CCNCC1
Give bare numbers, in micrograms/mL.

compound="CC(C)C[C@@H]1NC(=O)[C@@H](Cc2ccccc2)NC(=O)[C@H](CCN)NC(=O)[C@@H](NC(=O)[C@H](CCN)NC(=O)[C@@H](NC(=O)CC2CCCCC2)C(C)O)CCNC(=O)[C@H](C(C)O)NC(=O)[C@H](CCN)NC(=O)[C@H](CCN)NC1=O (stereo partly shown) [Example C4, TFA salt, reference compound] (Cyclohexylacetyl-[Thr(3ξ)][Dab][Dab][Dab][dF]L[Dab][Dab][Thr(3ξ)]; lactam 3-C)" target_of_assay="Pseudomonas aeruginosa" test_readout="MIC P. aeruginosa ATCC-47" reading=1

Read the next record carefully.
Form field MIC P. aeruginosa ATCC-47, entry CC(C)C[C@@H]1NC(=O)[C@@H](Cc2ccccc2)NC(=O)[C@H](CCN)NC(=O)[C@@H](NC(=O)[C@H](CCN)NC(=O)[C@@H](NC(=O)C2CCNCC2)C(C)O)CCNC(=O)[C@H](C(C)O)NC(=O)[C@H](CCN)NC(=O)[C@H](CCN)NC1=O (stereo partly shown) [Example 29] (H-[Inp][Thr(3ξ)][Dab][Dab][Dab][dF]L[Dab][Dab][Thr(3ξ)]; lactam 4-C) : 0.25

Reference for the values: patent US10407467B2
